Molecular target: T1, Hla
T1 chain: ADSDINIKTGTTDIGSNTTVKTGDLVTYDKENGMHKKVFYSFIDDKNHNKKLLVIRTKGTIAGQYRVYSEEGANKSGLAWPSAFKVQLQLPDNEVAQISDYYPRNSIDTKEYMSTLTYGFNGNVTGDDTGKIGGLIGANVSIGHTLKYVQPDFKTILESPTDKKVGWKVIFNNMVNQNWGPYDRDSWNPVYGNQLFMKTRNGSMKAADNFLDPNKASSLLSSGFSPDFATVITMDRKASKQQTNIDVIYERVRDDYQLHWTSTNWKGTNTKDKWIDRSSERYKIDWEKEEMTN
OUTCOME_MEASURE: Kd

Here's what some known entries look like.
binder="AB-28-7 (antibody, V domains shown) VH: QVQLQESGPGLVKPSETLSLTCAVSGYSISSGMGWDWIRQPPGKGREWIGSIDQRGSTYYNPSLEGRATISVDTSKNQFSLKLSSVTAADTAVYYCARDAGHGVDMDVWGKGTTVTVSS VL: DIQMTQSPSSVSASVGDRVTITCRASQGISRWLAWYQQKPGKAPKLLIYAASSLQSGVPSRFSGSGSGTDFTLTISSLQPEDFATYYCQQGYVFPLTFGGGTKVEIK" result_value="< 2 pM"
binder="AB-28-8 (antibody, V domains shown) VH: QVQLQESGPGLVKPSETLSLTCAVSGYSISSGMGWDWIRQPPGKGLEWIGSIDQRGSTYYNPPLESRVTISVDTSKNQFSLKLSSVTAADTAVYYCARDAGHGVDMDVWGKGTTVTVSS VL: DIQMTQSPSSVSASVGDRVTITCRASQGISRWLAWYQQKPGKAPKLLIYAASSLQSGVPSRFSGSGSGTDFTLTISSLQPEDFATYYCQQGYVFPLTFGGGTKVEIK" result_value="< 2 pM"

Now, please, on to the next binder.
Challenge: Quick one: Kd for AB-28-12 (antibody, V domains shown) VH: QVQLQESGPGLVKPSETLSLTCAVSGYSISSGMGWDWIRQPPGKGREWIGSIDQRGSTYYNPSLEGRVTISVDTSKNQFSLKLSSVTAADTAVYYCARDAGHGVDMDVWGKGTTVTVSS VL: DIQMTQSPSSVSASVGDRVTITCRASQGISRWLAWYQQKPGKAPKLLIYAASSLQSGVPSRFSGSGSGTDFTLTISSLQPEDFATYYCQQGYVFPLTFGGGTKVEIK ?
Response given: < 2 pM

src = patent US20180179267A1
